Source: the supplement of paper PMC7877785

- Method Summary: self-splicing fitness, log relative to wild type (ln ratio); higher = more splicing; Tetrahymena group I intron in knt gene, E. coli kanamycin selection, DiMSum; sequences stand for … in CUCUCU…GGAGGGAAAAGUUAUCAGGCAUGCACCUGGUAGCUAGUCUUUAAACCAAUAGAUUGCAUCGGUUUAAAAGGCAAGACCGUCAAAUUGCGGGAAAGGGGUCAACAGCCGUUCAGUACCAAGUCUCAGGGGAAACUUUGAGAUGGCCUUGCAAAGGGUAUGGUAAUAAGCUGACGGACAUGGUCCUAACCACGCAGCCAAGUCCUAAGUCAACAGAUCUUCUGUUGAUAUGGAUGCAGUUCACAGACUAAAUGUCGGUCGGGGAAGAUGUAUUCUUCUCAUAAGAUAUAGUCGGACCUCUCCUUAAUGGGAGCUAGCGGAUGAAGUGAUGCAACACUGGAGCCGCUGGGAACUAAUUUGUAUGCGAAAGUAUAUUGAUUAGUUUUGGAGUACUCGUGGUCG;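 note: selection with 25 µg/mL kanamycin versus none on LB agar overnight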
- Condition Parameters: 37 °C
Assign self-splicing fitness (ln) to each entry below.

Example sequences with recorded self-splicing fitness (ln):
| Sequence Record | self-splicing fitness (ln) |
| --- | --- |
| UGCGAGCAAUAUUACGCAGU | -4.06 |
| CCCCAGCAAUAUUACGCGCA | -1.36 |
| CGGAAGCAAUAUUACGAGCA | -1.82 |
| CCACAGCAAUAUUACGACUA | -2.88 |
| AACGAGCAAUAUUACGUUUG | -2.45 |

# return self-splicing fitness (ln) for each item in the list
1. ACACAGCAAUAUUACGAUUC
2. ACUUAGCAAUAUUACGGACC
3. GGAAAGCAAUAUUACGGACA
4. GCCAAGCAAUAUUACGGGAA
5. AAGUAGCAAUAUUACGAAGA

Reply:
1. -1.32
2. -0.756
3. 0.104
4. -0.585
5. -2.06

Please state self-splicing fitness (ln) for every sequence in the list that follows.
1. AUAAAGCAAUAUUACGUGAG
2. UAGAAGCAAUAUUACGCGUC
3. UCAGAGCAAUAUUACGGUCA
4. CGCAAGCAAUAUUACGAGGG
5. AUGAAGCAAUAUUACGUAUG
6. UAAAAGCAAUAUUACGUAAA

Reply:
1. -1.07
2. -1.56
3. -2.42
4. -2.9
5. -1.26
6. -1.1

Fill in self-splicing fitness (ln) for each of the 5 sequences listed.
1. AUUGAGCAAUAUUACGCAGG
2. CCUUAGCAAUAUUACGGCUC
3. ACCAAGCAAUAUUACGAUGG
4. CGAUAGCAAUAUUACGGACU
5. AAGGAGCAAUAUUACGAAAA

Reply:
1. -2.72
2. -3.45
3. -0.995
4. -0.496
5. -1.84

Hi! Can you tell me self-splicing fitness (ln) for each of these sequences?
1. GUGGAGCAAUAUUACGGUAG
2. GGACAGCAAUAUUACGAUAA

Reply:
-1.41
-0.876

----------
Can you tell me self-splicing fitness (ln) for the items I'm about to list?
- Method Summary: self-splicing fitness, log relative to wild type (ln ratio); higher = more splicing; Tetrahymena group I intron in knt gene, E. coli kanamycin selection, DiMSum; sequences stand for … in CUCUCU…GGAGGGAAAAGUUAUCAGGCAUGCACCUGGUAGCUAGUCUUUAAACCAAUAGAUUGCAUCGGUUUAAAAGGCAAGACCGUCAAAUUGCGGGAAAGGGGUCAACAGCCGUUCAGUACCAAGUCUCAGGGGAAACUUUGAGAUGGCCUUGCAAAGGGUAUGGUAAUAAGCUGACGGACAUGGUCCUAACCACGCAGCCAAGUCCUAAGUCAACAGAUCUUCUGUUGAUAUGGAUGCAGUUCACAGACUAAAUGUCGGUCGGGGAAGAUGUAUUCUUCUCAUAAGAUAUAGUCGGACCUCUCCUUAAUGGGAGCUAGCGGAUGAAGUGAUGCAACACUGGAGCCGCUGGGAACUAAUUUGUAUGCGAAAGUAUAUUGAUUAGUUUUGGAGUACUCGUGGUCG
- Condition Parameters: 30 °C
Answers are plain numbers.

Reference set, count: 5
| Sequence Record | self-splicing fitness (ln) |
| --- | --- |
| AUCUAGCAAUAUUACGACGC | -0.785 |
| UGUAAGCAAUAUUACGCGCC | -1.18 |
| AUAGAGCAAUAUUACGGAUA | -2.83 |
| UCAUAGCAAUAUUACGUCCU | -3.7 |
| UUUUAGCAAUAUUACGCAGA | -0.713 |

Hi! Can you tell me self-splicing fitness (ln) for each of these sequences?
1. GCAAAGCAAUAUUACGGAGA
2. AUAUAGCAAUAUUACGGUUU
3. CACUAGCAAUAUUACGAGUG
4. AGGCAGCAAUAUUACGCGGC
5. CGUUAGCAAUAUUACGUCUU

Reply:
[-2.82, -1.31, -3.45, -3.85, -4.03]

Below are 2 sequences. Give each one its self-splicing fitness (ln).
1. GUUCAGCAAUAUUACGACAA
2. CCGUAGCAAUAUUACGAGAA

Reply:
[-1.06, -2.42]

Lab note: each sequence below needs its self-splicing fitness (ln) filled in.
1. UACUAGCAAUAUUACGUACC
2. AAGAAGCAAUAUUACGGUAA

Reply:
1: -2.24; 2: -2.01

For every record below, what is its self-splicing fitness (ln)?
1. GGCCAGCAAUAUUACGGAUA
2. AUAUAGCAAUAUUACGGACU
3. UGAUAGCAAUAUUACGCUAG
4. UAGAAGCAAUAUUACGAUGG
5. AUUAAGCAAUAUUACGGAGG
6. AAUUAGCAAUAUUACGACCA
7. CGAUAGCAAUAUUACGGAUU
8. CUGGAGCAAUAUUACGUCGU

Reply:
[-1.41, -1.04, -1.09, -1.84, -2.32, -0.406, -2.89, -3.88]

----------
Hi there, I'd appreciate the recorded self-splicing fitness (ln) for every entry that follows.
- Method Summary: self-splicing fitness, log relative to wild type (ln ratio); higher = more splicing; Tetrahymena group I intron in knt gene, E. coli kanamycin selection, DiMSum; sequences stand for … in CUCUCU…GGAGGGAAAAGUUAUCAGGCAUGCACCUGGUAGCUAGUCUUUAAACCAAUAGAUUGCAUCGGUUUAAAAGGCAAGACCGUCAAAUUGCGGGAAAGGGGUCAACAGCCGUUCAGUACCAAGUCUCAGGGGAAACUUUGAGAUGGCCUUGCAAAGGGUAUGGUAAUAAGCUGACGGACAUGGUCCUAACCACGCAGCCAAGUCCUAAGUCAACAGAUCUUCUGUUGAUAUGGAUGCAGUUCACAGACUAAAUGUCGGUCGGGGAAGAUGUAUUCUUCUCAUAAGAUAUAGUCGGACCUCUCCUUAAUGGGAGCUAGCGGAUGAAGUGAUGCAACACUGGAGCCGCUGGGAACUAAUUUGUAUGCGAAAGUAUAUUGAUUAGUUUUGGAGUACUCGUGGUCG
- Condition Parameters: 37 °C
Answers are plain numbers.

Worked examples, 2 sequences total:
| Sequence Record | self-splicing fitness (ln) |
| --- | --- |
| CCUUAGCAAUAUUACGGCGG | -2.05 |
| CCGCAGCAAUAUUACGACGA | -0.259 |

Below is a list of sequences. For each, state its recorded self-splicing fitness (ln).
1. UAGAAGCAAUAUUACGCCCG
2. ACGCAGCAAUAUUACGCCCU
3. GCUGAGCAAUAUUACGAGUU
4. UCUCAGCAAUAUUACGCUUC

Reply:
[0.487, 0.187, -0.949, -2.33]

For every item in the list below, what is its measured self-splicing fitness (ln)?
1. UAUUAGCAAUAUUACGUUGC
2. CCAUAGCAAUAUUACGGAUG
3. CAUUAGCAAUAUUACGUGGG
4. AAAGAGCAAUAUUACGACUU
5. CCCUAGCAAUAUUACGAUAG
6. GAAGAGCAAUAUUACGGGGG

Reply:
1: -2.59; 2: -1.43; 3: -2.76; 4: -0.0473; 5: -2.39; 6: -3.06

Please supply self-splicing fitness (ln) for each of the following items, keeping them in order.
1. GCUAAGCAAUAUUACGAUGC
2. UAGCAGCAAUAUUACGUUCA
3. UGUGAGCAAUAUUACGACUG
4. AGUGAGCAAUAUUACGAUGC

Reply:
1. -2.18
2. 0.0609
3. -0.343
4. -3.16

----------
- Method Summary: self-splicing fitness, log relative to wild type (ln ratio); higher = more splicing; Tetrahymena group I intron in knt gene, E. coli kanamycin selection, DiMSum; sequences stand for … in CUCUCU…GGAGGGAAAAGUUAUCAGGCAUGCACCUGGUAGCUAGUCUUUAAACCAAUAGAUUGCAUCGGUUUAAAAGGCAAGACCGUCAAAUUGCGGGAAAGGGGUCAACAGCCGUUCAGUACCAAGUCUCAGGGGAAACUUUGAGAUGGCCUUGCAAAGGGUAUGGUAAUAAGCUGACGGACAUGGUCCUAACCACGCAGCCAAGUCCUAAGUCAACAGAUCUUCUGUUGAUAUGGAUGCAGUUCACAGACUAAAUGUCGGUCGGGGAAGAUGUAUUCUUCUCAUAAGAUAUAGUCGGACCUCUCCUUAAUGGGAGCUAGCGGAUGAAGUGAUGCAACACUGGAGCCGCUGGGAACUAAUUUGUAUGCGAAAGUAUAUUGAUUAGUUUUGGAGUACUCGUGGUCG
- Condition Parameters: 30 °C
Measured Property: self-splicing fitness (ln)
Numbers only.

These solved cases illustrate the format of a correct answer.
| Sequence Record | Measured Property | Data Value |
| --- | --- | --- |
| UAUUAGCAAUAUUACGGCAA | self-splicing fitness (ln) | -1.06 |
| GACUAGCAAUAUUACGUUAG | self-splicing fitness (ln) | -4.25 |
| CUUAAGCAAUAUUACGCUUC | self-splicing fitness (ln) | -3.15 |

Please state, for each entry, its recorded self-splicing fitness (ln).
1. AUCAAGCAAUAUUACGCACA
2. GCCUAGCAAUAUUACGGAGG
3. GAGGAGCAAUAUUACGGUAU
4. UCUUAGCAAUAUUACGGUAU

Reply:
1. -0.256
2. -2.47
3. -2.88
4. -4.43

Need self-splicing fitness (ln) for each of these sequences.
1. UCUUAGCAAUAUUACGACCU
2. GCAGAGCAAUAUUACGAUUA

Reply:
1: -1.75; 2: -2.28

Please supply self-splicing fitness (ln) for each of the following items, keeping them in order.
1. CCGCAGCAAUAUUACGUGCU
2. GCUUAGCAAUAUUACGGUUA
3. GGUUAGCAAUAUUACGCUAA
4. AGACAGCAAUAUUACGGGCU
5. CAAAAGCAAUAUUACGACCG
6. AGUGAGCAAUAUUACGACCU
7. GAUCAGCAAUAUUACGAUGC

Reply:
[-2.05, -0.517, -1.98, -1.78, -0.0202, -1.32, -0.684]
